Test system: EV-A71
Experiment: High-throughput immunofluorescence antiviral screen in NSC-34 cells
Assay type: cell-based, human enterovirus A71
Conditions: Enterovirus A, EVA71, NSC-34, 12 h, read-out: EV-A71 inhibition (logs), reduction in viral titre, screen, 10 µM, NSC-34 cells, EV-A71 MOI 1, 12 h
experimental readout: log reduction at 10 µM
Lab note: record the figure alone, no unit after it.

Q: Data request, read-out log reduction at 10 µM, for COc1ccc(C23Oc4cc(OC)cc(OC)c4C(O)(C(c4c(F)c(F)c(F)c(F)c4F)C2c2ccccc2)C3O)cc1 (centres unmarked)
A: 2.3

Q: Which log reduction at 10 µM value is on record for COC(=O)C1C(c2ccccc2)C2(c3ccc(Br)cc3)C(=O)C1(O)c1c(OC)cc(OC)cc1N2C (centres unmarked) ?
A: 1.2

Q: Dear colleague, I am looking for the recorded log reduction at 10 µM of the following compound: COC(=O)C1C(c2ccccc2)C2(c3ccc(Br)cc3)C(O)C1(O)c1c(OC)cc(OC)cc1N2C (centres unmarked)
A: 1.4

Q: Would you kindly share the measured log reduction at 10 µM for COC(=O)C1C(c2ccccc2)C2(c3ccc(OC)cc3)Oc3cc(OC)cc(OC)c3C1(O)C2O (centres unmarked) ?
A: 0.1

----------
Assay: alamarBlue cytotoxicity dose response, NSC-34
Conditions: mouse, NSC-34 cells
Description: The complete cytotoxicity profiles of selected rocaglate/aglain derivatives against NSC‐34 or SH‐SY5Y cells were determined via the alamarBlue assay. Treated cells were incubated with the compounds for 12 h (NSC‐34) or 24 h (SH‐SY5Y). Negative and vehicle controls of this assay involved cells treated with fresh reduced serum DMEM and 0.1% DMSO, respectively. Cell viability in each treatment group was determined based on the intensity of colorimetric changes of each treatment group. […]
experimental readout: CC50 at 12 h

Q: Look up CC50 at 12 h: COc1ccc(C23Oc4cc(OC)cc(OC)c4C(O)(C2=O)C(c2ccccc2)C3c2ccccc2)cc1 (stereo not shown)
A: 42.6 µM

----------
Experiment: in vitro
Conditions: mouse, Cell Viability (%), screen, 10 µM, NSC-34 cells, 12 h
experimental readout: viability at 10 µM

Q: Any idea what viability at 10 µM was measured for COc1ccc(C23Oc4cc(OC)cc(OC)c4C(O)(C(c4c(F)c(F)c(F)c(F)c4F)C2c2ccccc2)C3O)cc1 (stereo not shown) [Compound 13] ?
A: > 90%

----------
Test: alamarBlue cytotoxicity dose response, NSC-34
Details: mouse
Method: The complete cytotoxicity profiles of selected rocaglate/aglain derivatives against NSC‐34 or SH‐SY5Y cells were determined via the alamarBlue assay. Treated cells were incubated with the compounds for 12 h (NSC‐34) or 24 h (SH‐SY5Y). Negative and vehicle controls of this assay involved cells treated with fresh reduced serum DMEM and 0.1% DMSO, respectively. Cell viability in each treatment group was determined based on the intensity of colorimetric changes of each treatment group. […]
Measured CC50 at 12 h accompanies every entry in the list below.
Numbers only here, please. The scale is µM.

{"compound": "COc1ccc(C23Oc4cc(OC)cc(OC)c4C(O)(C(c4c(F)c(F)c(F)c(F)c4F)C2c2ccccc2)C3O)cc1 (stereo not shown) [Compound 13]", "CC50 at 12 h (µM)": 21.8}

Q: Could you share which CC50 at 12 h value was measured for COC(=O)C1C(c2ccccc2)C2(c3ccc(Br)cc3)Oc3cc(OC)cc(OC)c3C1(O)C2=O (stereo not shown) [Compound 18] ?
A: 13.1
